Exercise: for every item that follows, state its recorded protein stability index.
B1: NEK8 (parent)
chain: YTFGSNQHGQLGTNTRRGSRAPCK

# Variants of: B1
# ASSAY_REMARKS: protein stability index of a GFP-peptide fusion (GPS, HEK-293T) (PSI 1-6); higher = more stable;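 note: lentivirally expressed fusions sorted by FACS into six bins by GFP to DsRed ratio, PSI derived from sequencing read proportions per bin multiplied by bin number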
# MEASUREMENT_PARAMETERS: c terminus: a fixed tail appended
Numbers only.

Example variants with recorded protein stability index:
Give its protein stability index value. Item: `G12I`
3.79

Give its protein stability index value. Item: `N14W`
3.21

Give its protein stability index value. Item: `G18C`
3.48

Give its protein stability index value. Item: `F3M`
4.13

Give its protein stability index value. Item: `N6D`
4.24

Give its protein stability index value. Item: `T15Y`
3.67

Give its protein stability index value. Item: `G4S`
3.66

Give its protein stability index value. Item: `S19L`
3.82

Provide the reported protein stability index of each entry below, same order.
1. Y1W
2. H8F
3. F3N

4.28
3.23
3.95

Provide the reported protein stability index of each entry below, same order.
1. S19V
2. P22H

3.77
3.53

Data provenance: the supplement of paper PMC10567573
